Every entry's value here was drawn from patent US11572337B2.

target: S. aureus RNA polymerase core enzyme + S. aureus σA (Staphylococcus aureus (strain NCTC 8325 / PS 47), UniProt P47768+Q2G0N5); experiment: Fluorescence-detected assay of inhibition of Staphylococcus aureus RNA polymerase; conditions: T4 N25 promoter DNA, RiboGreen fluorescence, read-out: RNAP-inhibitory activity S. aureus RNAP IC50
measured.property: pIC50
Please note pIC50 is a logarithmic value: minus log10 of concentration in mol/L. Answer with that number alone.

Example results:
O=C(NCc1ccc(Oc2ccccc2)cc1C(F)(F)F)c1c(O)cc(O)cc1O: 5.74
O=C(NCCc1ccc(Cl)cc1)c1c(O)c(Cl)c(O)c(Cl)c1O: 4.01
CC(C)(CNC(=O)c1c(O)cc(O)cc1O)c1ccc(Cl)cc1: 5.57

Please turn your attention to the following entry.
Exercise: Please report the recorded pIC50 for O=C(NCCc1ccc(Oc2ccc(Cl)cc2)cc1)c1c(O)cc(O)c(Cl)c1O .
Solution: 5.10

---

// reported log10 of IC50 per item
target: S. aureus RNA polymerase core enzyme + S. aureus σA (Staphylococcus aureus (strain NCTC 8325 / PS 47), UniProt P47768+Q2G0N5); assay: Fluorescence-detected assay of inhibition of Staphylococcus aureus RNA polymerase; settings: T4 N25 promoter DNA, RiboGreen fluorescence, read-out: RNAP-inhibitory activity S. aureus RNAP IC50
Could you please treat all values as log10 of IC50 in µM?

Cc1cc(Oc2ccc(F)cc2)ccc1CNC(=O)c1c(O)cc(O)cc1O: 1.08
O=C(NCCc1ccc(Oc2ccccc2)cc1)c1c(O)c(Cl)c(O)c(Cl)c1O: 1.54
O=C(NCc1ccc(Oc2ccccc2)cc1)c1c(O)cc(O)cc1O: 0.18

Now turn to the next compound.
Exercise: Need log10 of IC50, item O=C(NCCc1ccc(Oc2ccc(Cl)cc2)cc1)c1c(O)cc(O)cc1O
Solution: 1.15

---

target: E. coli RNA polymerase σ70 holoenzyme (Escherichia coli (strain K12), UniProt P0A8T7+P0A8V2); assay: Fluorescence-detected assay of inhibition of Escherichia coli RNA polymerase; conditions: T4 N25 promoter DNA, RiboGreen fluorescence, read-out: RNAP-inhibitory activity E. coli RNAP IC50
measured.property: IC50 (nM)
A number alone suffices; assume nM.

Worked cases, IC50 given:
CCC1=C(O)C(CC)(CC)C(=O)C(C(=O)NCCc2ccc(Oc3ccc(F)cc3)cc2)=C1O: 3300
O=C(NC1CC1)c1cccc(Oc2ccc(CCNC(=O)c3c(O)cc(O)cc3O)cc2)c1: 800
O=C(NCCc1ccc(Oc2cc(Cl)cc(Cl)c2)cc1)c1c(O)cc(O)c(Cl)c1O: 310
O=C(NCc1ccc(Oc2ccccc2)cc1)c1c(O)cc(O)cc1O: 140

Exercise: Find the recorded IC50 belonging to O=C(NCCc1ccc(Oc2ccc(F)cc2)cc1)c1c(O)c(Cl)c(O)c(Cl)c1O and report it.
Solution: 8400

Exercise: Note, next up: O=C(NCCc1ccc(Oc2cncnc2)cc1)c1c(O)cc(O)cc1O
Solution: 1500

Exercise: One more molecule: O=C(NCCc1ccc(Cl)cc1)c1c(O)cc(O)cc1O
Solution: 370

Exercise: Repeat for the following molecule: CC(C)(CNC(=O)c1c(O)cc(O)cc1O)c1ccc(Cl)cc1
Solution: 690

Exercise: Ok, now COc1ccc(Oc2ccc(CCNC(=O)c3c(O)cc(O)cc3O)cc2)cc1
Solution: 780

Exercise: # repeat for O=C(NCCc1ccc(C(F)(F)F)cc1)c1c(O)cc(O)cc1O
Solution: 7400

Exercise: Same question for O=C(NCCc1ccc(Oc2cccc(-c3ccncc3)c2)cc1)c1c(O)cc(O)cc1O please.
Solution: 700

Exercise: Same thing, different molecule: O=C(NCCc1ccc(C(F)(F)F)cc1C(F)(F)F)c1c(O)cc(O)cc1O
Solution: 7200

Exercise: Same question, O=C(NCCc1ccc(Oc2cc(Cl)cc(Cl)c2)cc1)c1c(O)c(Cl)c(O)c(Cl)c1O this time
Solution: 770

Exercise: Try O=C(NCCc1ccc(Oc2ccccc2)cc1)c1c(O)cc(O)cc1O next.
Solution: 800

Exercise: Entry to check: O=C(NCCc1ccc(C(F)(F)F)cc1)c1c(O)cc(O)c(Cl)c1O
Solution: 6600

Exercise: Moving on to the next molecule: O=C(NCCc1ccc(Oc2ccc(-c3ccncc3)cc2)cc1)c1c(O)cc(O)cc1O
Solution: 1200

Exercise: Repeat for the following molecule: O=C(NCc1ccc(Oc2ccc(F)cc2)cc1Cl)c1c(O)cc(O)cc1O
Solution: 1400

Exercise: Item: O=C(NCCc1ccc(Oc2ccncc2)cc1)c1c(O)cc(O)cc1O
Solution: 1300

Exercise: Same lookup for O=C(NCCc1ccc(Oc2cccnc2)cc1)c1c(O)cc(O)cc1O , please.
Solution: 820

Exercise: Moving on to O=C(NCCc1ccc(Oc2ccc(Cl)cc2)cc1)c1c(O)c(Cl)c(O)c(Cl)c1O
Solution: 4500

Exercise: And O=C(NCc1ccc(Oc2ccc(F)cc2)cc1C(F)(F)F)c1c(O)cc(O)cc1O ?
Solution: 790
